Target: hK2 (Homo sapiens, UniProt P20151)
Construct: made in house
Sequence (P20151 25-261): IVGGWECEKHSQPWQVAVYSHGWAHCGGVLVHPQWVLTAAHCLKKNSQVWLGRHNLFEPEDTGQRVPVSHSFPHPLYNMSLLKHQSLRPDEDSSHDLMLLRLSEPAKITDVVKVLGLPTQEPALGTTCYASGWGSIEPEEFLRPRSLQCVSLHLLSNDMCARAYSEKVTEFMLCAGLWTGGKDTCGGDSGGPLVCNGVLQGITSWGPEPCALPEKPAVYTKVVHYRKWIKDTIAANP
Assay: Hydrolysis of hK2 substrates by hK2
Type: biochemical
Conditions: Table 5; hK2 1 μg/ml, 50 mM Tris, 0.1 M NaCl, pH 7.8
Label key: Condition met means hK2 Hydrolysis Rate under 3000 FU/hr/m; Condition not met means hK2 Hydrolysis Rate of 3000 FU/hr/m or more.

Here are 3 substances together with their reported answers.
| substance | label value |
| --- | --- |
| SEQ ID NO: 93: hK2 substrate peptide, single letter sequence P7-P′1 (GHAQKRRL; listed as Homo sapiens) | Condition not met |
| SEQ ID NO: 95: hK2 substrate peptide, single letter sequence P7-P′1 (GHEAKRRL; listed as Homo sapiens) | Condition not met |
| SEQ ID NO: 121: hK2 substrate peptide, single letter sequence P6-P′1 (GGKAHKL; listed as Homo sapiens) | Condition met |

Okay, now this substance:
Query block: Field: below-cutoff. Rule: recorded hK2 Hydrolysis Rate strictly less than 3000 FU/hr/m. Subject: SEQ ID NO: 99: hK2 substrate peptide, single letter sequence P7-P′1 (GHEQKRRS; listed as Homo sapiens)
Result block: Condition met

###

Experiment: Serum hydrolysis of hK2 substrates
Format: in vitro ADME
Details: Table 4; 50% fresh human serum in 50 mM Tris, 0.1 M NaCl, pH 7.8
Method: Hydrolyses of particular hK2 substrates were carried out at a hK2 concentrations of 1 μg/ml in 50 mM Tris buffer, with 0.1 M NaCl, at pH 7.8. Serum hydrolysis measurements were carried out in 50% fresh human serum in 50 mM Tris buffer, with 0.1 M NaCl, at pH 7.8. The single letter amino acid code was used to designate the peptide sequences used for Table 4. The units FU are arbitrary fluorescence units. The entries “U.D.” were for measurements of less than 0.01 FU/hour.
Below is a list of entries, each paired with its recorded Serum Hydrolysis Rate value.
// units = FU/hr; emit number, no label

These solved cases illustrate the format of a correct answer.
| substance | Serum Hydrolysis Rate / FU/hr |
| --- | --- |
| SEQ ID NO: 72: hK2 substrate peptide, single letter sequence P7-P′1 (GKDVSRRL; listed as Homo sapiens) | 0.08 |
| SEQ ID NO: 75: hK2 substrate peptide, single letter sequence P7-P′1 (GSYPSSRL; listed as Homo sapiens) | 0.06 |

Record SEQ ID NO: 86: hK2 substrate peptide, single letter sequence P7-P′1 (GGGKAHHL; listed as Homo sapiens) , field Serum Hydrolysis Rate: 0.05

Form: substance = SEQ ID NO: 80: hK2 substrate peptide, single letter sequence P7-P′1 (GSNTEKRL; listed as Homo sapiens) ; Serum Hydrolysis Rate = 0.13

So for SEQ ID NO: 67: hK2 substrate peptide, single letter sequence P7-P′1 (GGGKARRL; listed as Homo sapiens) , the logged Serum Hydrolysis Rate turned out to be 0.03

The recorded Serum Hydrolysis Rate for SEQ ID NO: 79: hK2 substrate peptide, single letter sequence P7-P′1 (GKDVSGRL; listed as Homo sapiens) is 0.05

Recorded Serum Hydrolysis Rate (substance SEQ ID NO: 68: hK2 substrate peptide, single letter sequence P7-P′1 (GGGKAHRL; listed as Homo sapiens) ): 0.09

Serum Hydrolysis Rate reported for this substance SEQ ID NO: 85: hK2 substrate peptide, single letter sequence P7-P′1 (GKDVSGHL; listed as Homo sapiens) : 0.05

So for SEQ ID NO: 74: hK2 substrate peptide, single letter sequence P7-P′1 (GSYPSRRL; listed as Homo sapiens) , the logged Serum Hydrolysis Rate turned out to be 0.09

Reported Serum Hydrolysis Rate ( SEQ ID NO: 73: hK2 substrate peptide, single letter sequence P7-P′1 (GSQNQRRL; listed as Homo sapiens) ) = 0.05

The reported Serum Hydrolysis Rate of the substance SEQ ID NO: 78: hK2 substrate peptide, single letter sequence P7-P′1 (GSYEERRL; listed as Homo sapiens) was 0.04

Summary for this substance, SEQ ID NO: 66: hK2 substrate peptide, single letter sequence P7-P′1 (GHEQKRRL; listed as Homo sapiens) : Serum Hydrolysis Rate is 0.17

What the record says about SEQ ID NO: 69: hK2 substrate peptide, single letter sequence P7-P′1 (GPAHQRRL; listed as Homo sapiens) : Serum Hydrolysis Rate is 0.10

SEQ ID NO: 88: hK2 substrate peptide, single letter sequence P7-P′1 (GPAHQDRL; listed as Homo sapiens) yielded Serum Hydrolysis Rate of 0.06

Summary for this substance, SEQ ID NO: 76: hK2 substrate peptide, single letter sequence P7-P′1 (GHEQKGRL; listed as Homo sapiens) : Serum Hydrolysis Rate is 0.04

Looking up SEQ ID NO: 92: hK2 substrate peptide, single letter sequence P7-P′1 (GSQNQVHL; listed as Homo sapiens) , I found its Serum Hydrolysis Rate recorded as 0.03

Please fill in: Serum Hydrolysis Rate reported for SEQ ID NO: 84: hK2 substrate peptide, single letter sequence P7-P′1 (GSYEERHL; listed as Homo sapiens) = 0.09

// SEQ ID NO: 83: hK2 substrate peptide, single letter sequence P7-P′1 (GPLILSRL; listed as Homo sapiens) : Serum Hydrolysis Rate value = 0.07

# Serum Hydrolysis Rate (substance: SEQ ID NO: 90: hK2 substrate peptide, single letter sequence P7-P′1 (GPAHQDHL; listed as Homo sapiens) ) is 0.00

// field: Serum Hydrolysis Rate; key: SEQ ID NO: 70: hK2 substrate peptide, single letter sequence P7-P′1 (GSKGHFRL; listed as Homo sapiens) ; value = 0.04

Serum Hydrolysis Rate recorded for this substance, SEQ ID NO: 82: hK2 substrate peptide, single letter sequence P7-P′1 (GSQNQVRL; listed as Homo sapiens) , is 0.03
